Each recorded value in this set is attributed to the supplement of paper PMC11061612.

# System: KYM-1 (Rhabdomyosarcoma);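 further: after 72 h of two-drug dosing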
# RUN_DESCRIPTION: Bliss excess, mean over the matrix (fraction); higher = more synergy
MEASUREMENT_NAME: Bliss excess
Number, no unit, nothing else.

Answer with reported Bliss excess of COc1cccc(OCCCN)c1-c1cc(Nc2cnc(C#N)cn2)n[nH]1 [Prexasertib] + C=CCn1c(=O)c2cnc(Nc3ccc(N4CCN(C)CC4)cc3)nc2n1-c1cccc(C(C)(C)O)n1 [AZD1775] (first compound max 1 µM, partner max 1 µM)
0.0713

====

# Tested on: EB-3 (Burkitt's Lymphoma)
# RUN_DESCRIPTION: combination Emax (second highest fraction inhibited in the dose matrix, 72 h); higher = more inhibition; extreme values may be limits of the assay
MEASUREMENT_NAME: combination Emax
Number, no unit, nothing else.

Field: example entries. Status: answers known.
O=C(c1cc(Cc2n[nH]c(=O)c3ccccc23)ccc1F)N1CCN(C(=O)C2CC2)CC1 [Olaparib] + Cc1c2c(nn1C)CSCc1cc(n(C)n1)CSc1cc(c3ccccc3c1)OCCCc1c(C(=O)O)n(C)c3c-2c(Cl)ccc13 [AZD5991] (first compound max 10 µM, 7x7, partner max 1 µM)
0.0218
Cc1cc2ncnn2cc1Nc1ncc2c(n1)n(C1CCOCC1)c(=O)n2C [AZD7648] + CCN(CCO)CCCOc1ccc2c(Nc3cc(CC(=O)Nc4cccc(F)c4)[nH]n3)ncnc2c1 [AZD2811] (first compound max 10 µM, 7x7, partner max 1 µM)
0.554
CC1(C)CCC(CN2CCN(c3ccc(C(=O)NS(=O)(=O)c4ccc(NCC5CCOCC5)c([N+](=O)[O-])c4)c(Oc4cnc5[nH]ccc5c4)c3)CC2)=C(c2ccc(Cl)cc2)C1 [Venetoclax] + C1CN(CCC1(C(=O)N[C@@H](CCO)C2=CC=C(C=C2)Cl)N)C3=NC=NC4=C3C=CN4 [Capivasertib] (first compound max 1 µM, 7x7, partner max 3 µM)
0.176

Continue with the molecule presented below.
Answer with reported combination Emax of C[C@@H]1COCCN1c1cc(C2([S@](C)(=N)=O)CC2)nc(-c2ccnc3[nH]ccc23)n1 [AZD6738] + O=C(c1cc(Cc2n[nH]c(=O)c3ccccc23)ccc1F)N1CCN(C(=O)C2CC2)CC1 [Olaparib] (first compound max 10 µM, 7x7, partner max 10 µM)
0.617

====

# Tested on: Becker (Low Grade Glioma)
# RUN_DESCRIPTION: combination Emax (second highest fraction inhibited in the dose matrix, 72 h); higher = more inhibition; extreme values may be limits of the assay
The compounds listed here are annotated with their combination Emax.
Number, no unit, nothing else.

Field: example entries. Status: answers known.
N#Cc1cnc(Nc2cc(NC[C@H]3CNCCO3)c(C(F)(F)F)cn2)cn1 [SRA737] + C=CCn1c(=O)c2cnc(Nc3ccc(N4CCN(C)CC4)cc3)nc2n1-c1cccc(C(C)(C)O)n1 [AZD1775] (first compound max 10 µM, partner max 1 µM)
0.705
CC1(C)CCC(CN2CCN(c3ccc(C(=O)NS(=O)(=O)c4ccc(NCC5CCOCC5)c([N+](=O)[O-])c4)c(Oc4cnc5[nH]ccc5c4)c3)CC2)=C(c2ccc(Cl)cc2)C1 [Venetoclax] + C[C@@H](Nc1cc(F)cc(F)c1)c1cc(C(=O)N(C)C)cc2c(=O)cc(N3CCOCC3)oc12 [AZD8186] (first compound max 1 µM, 7x7, partner max 3 µM)
0.418

Continue with the compound presented below.
Answer with reported combination Emax of CN(C)CCCOc1ccc(-c2ccc3ncc4c(c3c2)n(C2CCOCC2)c(=O)n4C)cn1 [AZD0156] + CCN(CCO)CCCOc1ccc2c(Nc3cc(CC(=O)Nc4cccc(F)c4)[nH]n3)ncnc2c1 [AZD2811] (first compound max 1 µM, 7x7, partner max 1 µM)
0.0601
